assay: Circular dichroism (CD) spectroscopy; type: physicochemical; details: buffer with 30% trifluoroethanol
Where a SMILES comes first, the peptide text is derived from it. The star is where a group is joined. Benzoyl(4-F) = O=C(c1ccc(F)cc1)*
MEASUREMENT_TYPE: % Helical Content CD Buffer + 30% TFE
Enter the number, and then the unit.

Need % Helical Content CD Buffer + 30% TFE, item CC(C)C[C@H](NC(=O)[C@H](CC(=O)O)NC(=O)CNC(=O)[C@H](CCCNC(=N)N)NC(=O)c1ccc(F)cc1)C(=O)N[C@@H](C)C(=O)N[C@@H](CC(=O)O)C(=O)N[C@@H](CC(C)C)C(=O)N[C@@H](CCCNC(=N)N)C(=O)N[C@@H](CCC(N)=O)C(=O)N[C@@H](CCCCN)C(=O)N[C@H](C(=O)N[C@@H](C)C(=O)N[C@@H](CCCNC(=N)N)C(=O)N[C@H](C(N)=O)[C@@H](C)O)C(C)C [P3Q] ({Benzoyl(4-F)}-RGDLADLRQKVART-NH2)
30%

Need % Helical Content CD Buffer + 30% TFE, item CC(C)C[C@H](NC(=O)[C@H](CO)NC(=O)[C@H](CC(=O)O)NC(=O)[C@H](CC(C)C)NC(=O)[C@H](CC(=O)O)NC(=O)[C@@H](NC(=O)[C@H](CCCNC(=N)N)NC(=O)c1ccc(F)cc1)[C@@H](C)O)C(=O)N[C@@H](CCCNC(=N)N)C(=O)N[C@@H](CCC(N)=O)C(=O)N[C@@H](CCCCN)C(=O)N[C@H](C(=O)N[C@@H](C)C(=O)N[C@@H](CCCNC(=N)N)C(=O)N[C@H](C(N)=O)[C@@H](C)O)C(C)C [RTD-14mer] ({Benzoyl(4-F)}-RTDLDSLRQKVART-NH2)
26.2%

Need % Helical Content CD Buffer + 30% TFE, item CC(C)C[C@H](NC(=O)[C@H](Cc1ccc(O)cc1)NC(=O)[C@@H](NC(=O)[C@H](CC(C)C)NC(=O)[C@H](CC(=O)O)NC(=O)CNC(=O)[C@@H](N)C(C)C)[C@@H](C)O)C(=O)N[C@@H](CCCCN)C(=O)N[C@@H](CCCCNC(=O)c1ccc(F)cc1)C(N)=O [P1] (H-VGDLTYLKK(Benzoyl(4-F))-NH2)
9.5%

Need % Helical Content CD Buffer + 30% TFE, item CC(C)C[C@H](NC(=O)[C@H](CO)NC(=O)[C@H](CC(=O)O)NC(=O)[C@H](CC(C)C)NC(=O)[C@H](CC(=O)O)NC(=O)[C@@H](NC(=O)[C@H](CCCNC(=N)N)NC(=O)c1ccc(F)cc1)[C@@H](C)O)C(=O)N[C@@H](CCCNC(=N)N)C(=O)N[C@H](C(N)=O)[C@@H](C)O [RTD-9mer, reference compound]
2.1%

Need % Helical Content CD Buffer + 30% TFE, item CC(C)C[C@H](NC(=O)[C@H](CC(=O)O)NC(=O)CNC(=O)[C@@H](N)CCCNC(=N)N)C(=O)N[C@@H](C)C(=O)N[C@@H](CC(=O)O)C(=O)N[C@@H](CC(C)C)C(=O)N[C@@H](CCCNC(=N)N)C(=O)N[C@@H](CCCCNC(=O)c1ccc(F)cc1)C(N)=O [P3] (H-RGDLADLRK(Benzoyl(4-F))-NH2)
7%
